# Assay Name: ATB200-04 trial: population PK exposure matching of adolescents to adults
# Format: in vivo, human
# Experimental Conditions: human, plasma, oral, miglustat, predicted; Adults N=100; read-out: Cmax, P5

Compound | Unit | Cmax
CCCCN1C[C@H](O)[C@@H](O)[C@H](O)[C@H]1CO [miglustat] | ng/mL | 1720

###

# Assay Name: ATB200-04 trial: population PK exposure matching of adolescents to adults
# Assay type: in vivo, human
# Experimental Conditions: human, plasma, oral, miglustat, predicted; Adults N=100; read-out: AUC0-24, P5
Property: AUC(0-t) (ng·h/mL)

Molecule | Property | Unit | Obs Value
CCCCN1C[C@H](O)[C@@H](O)[C@H](O)[C@H]1CO [miglustat] | AUC(0-t) | ng·h/mL | 15200
